Just for reference, patent US20200131144A1 is where these values come from.

Target: LXRβ full length (FL) (Homo sapiens, UniProt P55055, INS174Q)
Construct: the full length (FL) proteins of LXRα (amino acids 1-447); NP005684; NP009052
Sequence (P55055 with tags, fused parts or gaps INS174Q): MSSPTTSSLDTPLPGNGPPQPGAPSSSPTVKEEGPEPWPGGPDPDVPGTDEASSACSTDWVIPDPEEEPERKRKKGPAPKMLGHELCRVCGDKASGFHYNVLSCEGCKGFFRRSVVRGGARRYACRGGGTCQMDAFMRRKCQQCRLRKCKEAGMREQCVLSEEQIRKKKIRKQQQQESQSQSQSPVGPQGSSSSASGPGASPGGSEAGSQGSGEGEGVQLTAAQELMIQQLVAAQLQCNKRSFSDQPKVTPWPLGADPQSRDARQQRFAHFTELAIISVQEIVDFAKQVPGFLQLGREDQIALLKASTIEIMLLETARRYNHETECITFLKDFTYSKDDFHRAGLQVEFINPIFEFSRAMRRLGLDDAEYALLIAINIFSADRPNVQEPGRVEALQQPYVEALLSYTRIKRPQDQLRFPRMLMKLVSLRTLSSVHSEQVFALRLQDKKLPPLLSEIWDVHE
Assay: LXR Gal4 reporter transient transfection assay, mammalian two-hybrid, FL-M2H Gal4β
Details: HEK293 cells; inverse agonist unless *
Record form. Attribute: EC50. Fill in for each entry.

Item: CC(C)(C(=O)O)c1cccc(-c2ccc(CN(Cc3ccc(C(F)(F)F)o3)C(=O)c3c4ccccc4cc4ccccc34)cc2)c1 Test system: LXRβ full length (FL) (Homo sapiens, UniProt P55055, INS174Q) Read-out: EC50 Value: ?
< 100 nM

Notebook: pull reported EC50 for LXRβ full length (FL) (Homo sapiens, UniProt P55055, INS174Q), entry Cc1nc2ccccc2c(C(=O)N(Cc2ccc(C(=O)N(C)C)o2)Cc2ncc(-c3cccc(C(C)C(=O)O)c3)cc2Cl)c1C (centres unmarked)
1000 to 10000 nM

Provide the documented EC50 with LXRβ full length (FL) (Homo sapiens, UniProt P55055, INS174Q) as the system for Cc1sc2ccccc2c1CN(Cc1ccc(-c2cccc(S(=O)(=O)CC(=O)O)c2)cc1)Cc1ccc(C(F)(F)F)o1
100 to 1000 nM

Please provide the recorded EC50 for COc1cc(-c2cccc(C(C)(C)C(=O)O)c2)ncc1CN(Cc1ccc(C(F)(F)F)o1)C(=O)c1c(C)ccc2ccccc12 , tested on LXRβ full length (FL) (Homo sapiens, UniProt P55055, INS174Q).
100 to 1000 nM

Lab request: please report EC50 under test system LXRβ full length (FL) (Homo sapiens, UniProt P55055, INS174Q) for CC(C)(C(=O)O)c1cccc(-c2ccc(CN(Cc3ccc(C(F)(F)F)o3)Cc3cccc4c3CCOC4)cc2)c1
< 100 nM

Form entry - test system: LXRβ full length (FL) (Homo sapiens, UniProt P55055, INS174Q); read-out: EC50; compound: Cc1ccc2ccccc2c1C(=O)N(Cc1ccc(-c2cccc(S(=O)(=O)CC(=O)O)c2)cc1)Cc1ccc(C(N)=O)o1
1000 to 10000 nM

What reported EC50 corresponds to CC(C)(C(=O)O)c1cccc(-c2ccc(CN(Cc3ccc(C(F)(F)F)o3)C(=O)C3C(C)(C)CCC3(C)C)cc2)c1 on LXRβ full length (FL) (Homo sapiens, UniProt P55055, INS174Q)?
< 100 nM

Find EC50 (LXRβ full length (FL) (Homo sapiens, UniProt P55055, INS174Q)) for the entry Cc1ccc2ccccc2c1CN(Cc1ccc(-c2cccc(C(=O)C(=O)O)c2)cc1)Cc1ccc(C(F)(F)F)o1
100 to 1000 nM

// lookup EC50 | system=LXRβ full length (FL) (Homo sapiens, UniProt P55055, INS174Q) | key= Cc1ccc2ccccc2c1CN(Cc1ccc(C(F)(F)F)o1)Cc1ccc(-c2cncc(S(=O)(=O)CC(=O)O)c2)cc1Cl
100 to 1000 nM

Can you look up EC50 on LXRβ full length (FL) (Homo sapiens, UniProt P55055, INS174Q) for CC(C)(C(=O)O)c1cccc(-c2ccc(CN(Cc3ccc(C(F)(F)F)o3)C(=O)c3cccc4ncncc34)cc2)c1 ?
< 100 nM

LXRβ full length (FL) (Homo sapiens, UniProt P55055, INS174Q) / EC50 / CCOC(=O)c1ccc(CN(Cc2ncc(-c3cccc(C(C)C(=O)O)c3)cc2Cl)C(=O)c2c(C)c(C)nc3ccccc23)o1 (centres unmarked) : value?
100 to 1000 nM

Please provide the recorded EC50 for Cc1ccc2ccccc2c1C(=O)N(Cc1ccc(C(F)(F)F)o1)Cc1ccc(-c2cccc(C(C)(C)C(=O)O)c2)nc1N , tested on LXRβ full length (FL) (Homo sapiens, UniProt P55055, INS174Q).
< 100 nM

Given the entry Cc1nc2cnccc2c(C(=O)N(Cc2ccc(-c3cccc(C(C)(C)C(=O)O)c3)cc2)Cc2ccc(C(F)(F)F)o2)c1C , what EC50 was observed with LXRβ full length (FL) (Homo sapiens, UniProt P55055, INS174Q)?
< 100 nM

Provide the documented EC50 with LXRβ full length (FL) (Homo sapiens, UniProt P55055, INS174Q) as the system for Cc1ccc2ccccc2c1C(=O)N(Cc1ccc(C(F)(F)F)o1)Cc1ncc(-c2cccc(C(C)(C)C(=O)O)c2)cc1Cl
< 100 nM
